Test system: patient-derived Meso84 cell line (sarcomatoid MPM)
Assay Comment: MTT cytotoxicity assay, 72 h, Meso84
Format: cell-based, human
Condition Set: exposure time 72 h
pIC50: −log10 of the molar value.
A collection of compounds and their measured pIC50
Reported Metric: pIC50

N.N.[Cl][Pt][Cl] [Cisplatin, cisplatin, reference compound] | 4.77
F[P-](F)(F)(F)(F)F.O=C1c2cccc[c]2[Au-]2([S]C(=[N+]3CCCCCC3)[S]2)[n+]2ccccc21 (centres unmarked) | 5.74
CCCC[N+](CCCC)=C1[S][Au-]2([S]1)[c]1ccccc1Nc1cccc[n+]12.F[P-](F)(F)(F)(F)F (centres unmarked) | 6.74
CC[N+](=C1[S][Au-]2([S]1)[c]1ccccc1Cc1cccc[n+]12)c1ccccc1.F[P-](F)(F)(F)(F)F (centres unmarked) | 5.80
COC1c2cccc[c]2[Au-]2([S]C(=[N+](C)C)[S]2)[n+]2ccccc21.F[P-](F)(F)(F)(F)F (racemic) | 6.72
CC[N+](CC)=C1[S][Au-]2([S]1)[c]1ccccc1C(=O)c1cccc[n+]12.F[P-](F)(F)(F)(F)F (centres unmarked) | 5.85
COC1c2cccc[c]2[Au-]2([S]C(=[N+]3CCCCC3)[S]2)[n+]2ccccc21.F[P-](F)(F)(F)(F)F (racemic) | 6.48
F[P-](F)(F)(F)(F)F.c1cc[c]2c(c1)-c1cccc[n+]1[Au-]21[S]C(=[N+]2CCCCCC2)[S]1 (centres unmarked) | 6.30
F[P-](F)(F)(F)(F)F.c1ccc(C[N+](Cc2ccccc2)=C2[S][Au-]3([S]2)[c]2ccccc2Nc2cccc[n+]23)cc1 (centres unmarked) | 5.96
C[N+](C)=C1[S][Au-]2([S]1)[c]1ccccc1Cc1cccc[n+]12.F[P-](F)(F)(F)(F)F (centres unmarked) | 6.66
F[P-](F)(F)(F)(F)F.c1cc[c]2c(c1)Cc1cccc[n+]1[Au-]21[S]C(=[N+]2CCCC2)[S]1 (centres unmarked) | 6.25
F[P-](F)(F)(F)(F)F.c1ccc(C[N+](Cc2ccccc2)=C2[S][Au-]3([S]2)[c]2ccccc2-c2cccc[n+]23)cc1 (centres unmarked) | 5.85
C[N+](C)=C1[S][Au-]2([S]1)[c]1ccccc1-c1cccc[n+]12.F[P-](F)(F)(F)(F)F (centres unmarked) | 5.89
CC[N+](CC)=C1[S][Au-]2([S]1)[c]1ccccc1Cc1cccc[n+]12.F[P-](F)(F)(F)(F)F (centres unmarked) | 6.38
C[N+](C)=C1[S][Au-]2([S]1)[c]1ccccc1C(=O)c1cccc[n+]12.F[P-](F)(F)(F)(F)F (centres unmarked) | 5.92
CC[N+](CC)=C1[S][Au-]2([S]1)[c]1ccccc1Nc1cccc[n+]12.F[P-](F)(F)(F)(F)F (centres unmarked) | 7.20
F[P-](F)(F)(F)(F)F.c1cc[c]2c(c1)Nc1cccc[n+]1[Au-]21[S]C(=[N+]2CCCCCC2)[S]1 (centres unmarked) | 6.52
